Molecular target: human PDE2A1 (Homo sapiens (Human), UniProt O00408)
Sequence (O00408 other isoform, or with tags, fused parts or gaps): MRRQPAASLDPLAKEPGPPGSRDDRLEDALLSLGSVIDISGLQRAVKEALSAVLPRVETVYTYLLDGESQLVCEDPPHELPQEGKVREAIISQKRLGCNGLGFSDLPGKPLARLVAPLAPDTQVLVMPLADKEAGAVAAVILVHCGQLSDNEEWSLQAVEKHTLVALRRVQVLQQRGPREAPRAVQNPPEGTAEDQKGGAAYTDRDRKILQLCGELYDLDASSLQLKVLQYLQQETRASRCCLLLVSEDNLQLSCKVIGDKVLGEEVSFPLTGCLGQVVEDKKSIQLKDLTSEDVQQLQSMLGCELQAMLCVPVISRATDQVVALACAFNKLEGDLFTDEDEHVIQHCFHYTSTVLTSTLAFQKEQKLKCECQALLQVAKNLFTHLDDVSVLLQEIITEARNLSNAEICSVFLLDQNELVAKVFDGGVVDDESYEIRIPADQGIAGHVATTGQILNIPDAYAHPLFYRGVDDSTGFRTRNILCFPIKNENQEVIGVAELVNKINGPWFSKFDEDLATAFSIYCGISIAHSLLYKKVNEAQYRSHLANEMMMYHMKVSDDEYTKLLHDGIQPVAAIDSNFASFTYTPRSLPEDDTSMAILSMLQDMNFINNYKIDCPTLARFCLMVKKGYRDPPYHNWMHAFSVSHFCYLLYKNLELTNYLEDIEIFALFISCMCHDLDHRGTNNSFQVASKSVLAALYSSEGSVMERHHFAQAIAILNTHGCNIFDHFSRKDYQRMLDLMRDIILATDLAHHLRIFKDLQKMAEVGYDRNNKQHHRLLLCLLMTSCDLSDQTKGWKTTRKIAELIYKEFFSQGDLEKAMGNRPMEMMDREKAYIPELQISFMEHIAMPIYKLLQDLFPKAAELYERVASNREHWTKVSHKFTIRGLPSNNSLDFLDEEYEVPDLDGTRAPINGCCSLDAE
Experiment: IMAP FP PDE selectivity panel, human PDE2A1
Assay type: biochemical
Conditions: Human PDE2, Lab B; read-out: Human PDE2 Ki (nM) - Lab B
Measured Endpoint: Ki (nM)

Guide cases for Ki, answers given:
[
  {
    "Molecule": "C[C@@H](NC(=O)c1cc(=O)[nH]c(-c2ncco2)n1)c1ccc(C(F)(F)F)cc1",
    "Measured Endpoint": "Ki",
    "Numeric Value": 234
  },
  {
    "Molecule": "COc1cc(C(F)(F)F)ccc1C(C)(C)NC(=O)c1cc(=O)[nH]c(C)n1",
    "Measured Endpoint": "Ki",
    "Numeric Value": 120
  }
]

A. CC(C)(C)C(NC(=O)c1cc(=O)[nH]c(-c2ncco2)n1)c1ccc(C(F)(F)F)cc1 (single isomer, unassigned) [Example 682]
B. Cc1nc(C(=O)N[C@H](C)c2ccc(OC(F)(F)F)c(F)c2)cc(=O)[nH]1
C. COc1ccc(Cc2nc(C(=O)N[C@@H](c3ccc(C(F)(F)F)cc3)C3CC3)cc(=O)[nH]2)cc1
Sort the 3 molecules by Ki; largest first, smallest last. Lab note: final answer is the ordered label list.
A, B, C

1. Cc1nc(C(=O)NC(C)(c2ccc(S(F)(F)(F)(F)F)cc2)C(C)C)cc(=O)[nH]1 (racemic) [Example 619]
2. Cc1nc(C(=O)NC(C)(c2ccc(S(F)(F)(F)(F)F)cc2)C(C)C)cc(=O)[nH]1 (single isomer, unassigned) [Example 663]
Could you check which of 1 and 2 has a smaller value for Ki? Return value: the label identifying the chosen record.
2
(2: 34 nM, 1: 67 nM)

---

Target: UniProt:O00408
Assay: IMAP FP PDE selectivity panel, human PDE2A1
Format: biochemical
Details: Human PDE2, Lab A; read-out: Human PDE2 Ki (nM) - Lab A
Measured Endpoint: Ki (nM)

Previously resolved entries follow.
[
  {
    "Compound": "Cc1nc(C(=O)NC(C)c2ccc(-c3ccccc3)cc2)cc(=O)[nH]1 (single isomer, unassigned)",
    "Ki / nM": 16
  },
  {
    "Compound": "O=C(NC1(c2ccc(SC(F)(F)F)cc2)CC1)c1cc(=O)[nH]c(C2CC2)n1",
    "Ki / nM": 7
  }
]

1. Cc1nc(C(=O)NC(CO)c2ccc(C(F)(F)F)cc2)cc(=O)[nH]1 (single isomer, unassigned)
2. CC(C)[C@@H](NC(=O)c1cc(=O)[nH]c(C2CC2)n1)c1ccc(OC(F)(F)F)cc1
Problem: Given the entries 1 and 2 , determine which has the lower reported Ki. Give the label of your selection.
2
(2: 1.2 nM, 1: 41 nM)

---

Molecular target: UniProtKB O00408
Assay: IMAP FP PDE selectivity panel, human PDE2A1
Type: biochemical
Conditions: Human PDE2, Lab A; read-out: Human PDE2 Ki (nM) - Lab A
Measured Endpoint: Ki (nM)

Look over these answered cases.
[
  {
    "Molecule": "Cc1nc(C(=O)N[C@@H](c2ccc(C(F)(F)F)c(F)c2)C2CC2)cc(=O)[nH]1",
    "Assay System": "UniProtKB O00408",
    "Unit": "nM",
    "Ki": 17
  },
  {
    "Molecule": "CC[C@@H](NC(=O)c1cc(=O)[nH]c(-c2ccccc2)n1)c1ccc(SC(F)(F)F)cc1",
    "Assay System": "UniProtKB O00408",
    "Unit": "nM",
    "Ki": 3.2
  },
  {
    "Molecule": "CC(NC(=O)c1cc(=O)[nH]c(-c2ccccc2)n1)c1ccc(C(F)(F)F)cc1Cl (centres unmarked)",
    "Assay System": "UniProtKB O00408",
    "Unit": "nM",
    "Ki": 35
  }
]

P. Cc1nc(C(=O)N[C@H](C)c2ccc(-c3ccc(F)cc3)cc2)cc(=O)[nH]1
Q. Cc1nc(C(=O)NC(C(=O)N(C)C)c2ccc(C(F)(F)F)cc2)cc(=O)[nH]1 (centres unmarked)
R. O=C(NCc1ccc(C2CC2)cc1)c1cc(=O)[nH]c(-c2ccccc2)n1
S. COc1ccc2cc(C(C)NC(=O)c3cc(=O)[nH]c(-c4ncccn4)n3)ccc2c1 (centres unmarked)
T. C[C@@H](NC(=O)c1cc(=O)[nH]c(-c2ncccn2)n1)c1ccc(C(F)(F)F)cc1
Exam item: list the entries in increasing order of Ki. List the labels, following the order given in the request.
T, S, R, P, Q
(T: 10 nM, S: 28 nM, R: 118 nM, P: 171 nM, Q: 565 nM)

---

Molecular target: human PDE2A1 (Homo sapiens (Human), UniProt O00408)
Assay: IMAP FP PDE selectivity panel, human PDE2A1
Type: biochemical
Settings: Human PDE2, Lab B; read-out: Human PDE2 Ki (nM) - Lab B
Measured Endpoint: Ki (nM)

I. COc1ccc(C(C)(C)c2nc(C(=O)N[C@@H](c3ccc(OC(F)(F)F)c(F)c3)C3CC3)cc(=O)[nH]2)cc1
II. Cc1nc(C(=O)N[C@@H](c2ccc(OC(F)(F)F)c(F)c2)C(C)(C)C)cc(=O)[nH]1
Please indicate which has the smaller reported Ki: I , or II . Write down the label attached to your selection.
II
(II: 2.8 nM, I: 49 nM)

a. O=C(NC1(c2ccc(C(F)(F)F)c(F)c2)CC1)c1cc(=O)[nH]c(-c2ncccn2)n1
b. CC[C@@H](NC(=O)c1cc(=O)[nH]c(-c2ccccc2)n1)c1ccc(C(F)(F)F)c(F)c1
c. CC(C)(C)[C@@H](NC(=O)c1cc(=O)[nH]c(C2CC2)n1)c1ccc(C(F)(F)F)c(F)c1
Parameters: sort_field (Ki), sort_dir (desc). State the ranking by listing the labels in the requested order.
a, b, c
(a: 21 nM, b: 5.9 nM, c: 1.3 nM)

---

Biological target: UniProt:B3VTJ2
Experiment: PDE2 fluorescence polarization (IMAP FP) inhibition assay, rhesus enzyme
Assay type: biochemical, rhesus macaque
Settings: Rhesus PDE2, Lab A; read-out: Rhesus PDE2 Ki (nM) - Lab A
Measured Endpoint: Ki (nM)

[
  {
    "Compound": "CC[C@@H](NC(=O)c1cc(=O)[nH]c(-c2ncccn2)n1)c1ccc(OC(F)(F)F)cc1",
    "Assay System": "UniProt:B3VTJ2",
    "Unit": "nM",
    "Ki": 12
  },
  {
    "Compound": "CC(C)(NC(=O)c1cc(=O)[nH]c(C2CC2)n1)c1ccc(C(F)(F)F)c(F)c1",
    "Assay System": "UniProt:B3VTJ2",
    "Unit": "nM",
    "Ki": 16
  },
  {
    "Compound": "CC[C@@H](NC(=O)c1cc(=O)[nH]c(-c2ncccn2)n1)c1ccc(OC(F)(F)F)c(F)c1",
    "Assay System": "UniProt:B3VTJ2",
    "Unit": "nM",
    "Ki": 6.4
  },
  {
    "Compound": "O=C(NC1(c2ccc(SC(F)(F)F)c(F)c2)CC1)c1cc(=O)[nH]c(-c2ncccn2)n1",
    "Assay System": "UniProt:B3VTJ2",
    "Unit": "nM",
    "Ki": 14
  },
  {
    "Compound": "C[C@@H](NC(=O)c1cc(=O)[nH]c(-c2ccccc2)n1)c1ccc(-c2ccccc2)cc1",
    "Assay System": "UniProt:B3VTJ2",
    "Unit": "nM",
    "Ki": 24
  }
]

1. O=C(NC1(c2ccc(C(F)(F)F)cc2)CC1)c1cc(=O)[nH]c(C2CC2)n1
2. Cc1nc(C(=O)N[C@@H](c2ccc(SC(F)(F)F)cc2)C2CC2)cc(=O)[nH]1
3. COc1cc(C(C)NC(=O)c2cc(=O)[nH]c(-c3ccccc3)n2)cc(OC)c1OC (stereo not shown)
4. Cc1nc(C(=O)N[C@H](C)c2ccc(OC(F)(F)F)cc2F)cc(=O)[nH]1
5. CC[C@@H](NC(=O)c1cc(=O)[nH]c(-c2ncccn2)n1)c1ccc(SC(F)(F)F)cc1
Please put the entries in order of rising Ki. Rank them, then answer with their labels in that order.
5, 2, 1, 4, 3
(5: 2.6 nM, 2: 9.2 nM, 1: 14 nM, 4: 46 nM, 3: 124 nM)

---

Target: Rhesus PDE2A3 (Macaca mulatta)
Sequence (B3VTJ2 1-941): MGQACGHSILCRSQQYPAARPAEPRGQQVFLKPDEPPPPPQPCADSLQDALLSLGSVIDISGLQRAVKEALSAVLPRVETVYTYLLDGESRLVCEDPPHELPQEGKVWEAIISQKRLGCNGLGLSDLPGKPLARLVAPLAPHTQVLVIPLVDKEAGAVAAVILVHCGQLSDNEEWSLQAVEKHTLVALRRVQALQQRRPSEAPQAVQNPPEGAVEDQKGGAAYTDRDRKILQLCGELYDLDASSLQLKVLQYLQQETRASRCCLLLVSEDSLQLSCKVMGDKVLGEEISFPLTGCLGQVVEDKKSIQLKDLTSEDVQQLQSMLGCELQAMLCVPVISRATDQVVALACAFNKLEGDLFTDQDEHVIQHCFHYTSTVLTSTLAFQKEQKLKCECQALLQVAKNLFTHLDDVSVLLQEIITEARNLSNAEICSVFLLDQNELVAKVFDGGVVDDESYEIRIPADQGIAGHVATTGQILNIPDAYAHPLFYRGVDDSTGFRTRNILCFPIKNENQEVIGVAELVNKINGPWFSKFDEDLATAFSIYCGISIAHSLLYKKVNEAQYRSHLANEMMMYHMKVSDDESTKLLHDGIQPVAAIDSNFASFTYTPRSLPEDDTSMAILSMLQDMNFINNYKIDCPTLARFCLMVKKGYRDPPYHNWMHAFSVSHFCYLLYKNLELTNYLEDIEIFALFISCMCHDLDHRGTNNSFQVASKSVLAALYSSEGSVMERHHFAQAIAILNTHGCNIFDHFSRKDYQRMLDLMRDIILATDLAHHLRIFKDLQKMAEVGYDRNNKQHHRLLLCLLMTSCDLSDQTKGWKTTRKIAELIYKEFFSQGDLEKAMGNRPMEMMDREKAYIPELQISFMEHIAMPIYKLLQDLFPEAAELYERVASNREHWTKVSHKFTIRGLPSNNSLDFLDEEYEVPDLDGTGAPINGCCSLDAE
Assay: PDE2 fluorescence polarization (IMAP FP) inhibition assay, rhesus enzyme
Type: biochemical, rhesus macaque
Conditions: Rhesus PDE2, Lab B; read-out: Rhesus PDE2 Ki (nM) - Lab B
Description: The activity of the compounds in accordance with the present invention as PDE2 inhibitors may be readily determined using a fluorescence polarization (FP) methodology (Huang, W., et al., J. Biomol Screen, 2002, 7: 215). In a typical experiment the PDE2 inhibitory activity of the compounds of the present invention was determined in accordance with the following experimental method. […] 0% of inhibition is determined by using DMSO (1% final concentrations). […]
Measured Endpoint: Ki (nM)

Previously resolved entries follow.
[
  {
    "Molecule": "O=C(N[C@@H](c1ccc(OC(F)F)cc1)C1CC1)c1cc(=O)[nH]c(-c2ccccc2)n1",
    "Ki, nM": 13
  },
  {
    "Molecule": "COc1ccc(Cc2nc(C(=O)N[C@@H](c3ccc(C(F)(F)F)c(F)c3)C3CC3)cc(=O)[nH]2)cc1F",
    "Ki, nM": 2.9
  },
  {
    "Molecule": "Cc1nc(C(=O)N[C@@H](c2ccc(C(F)(F)F)c([N+](=O)[O-])c2)C(C)(C)C)cc(=O)[nH]1",
    "Ki, nM": 32
  },
  {
    "Molecule": "CCc1nc(C(=O)NC2(c3ccc(OC(F)(F)F)c(F)c3)CC2)cc(=O)[nH]1",
    "Ki, nM": 5.2
  }
]

I. CC(NC(=O)c1cc(=O)[nH]c(-c2ccccc2)n1)c1ccc(F)cc1 (stereo not drawn)
II. CC[C@@H](NC(=O)c1cc(=O)[nH]c(-c2ncccn2)n1)c1ccc(C(F)(F)F)c(F)c1
III. O=C(NC1(c2ccc(SC(F)(F)F)c(F)c2)CC1)c1cc(=O)[nH]c(-c2ccccc2)n1
With regard to Ki, arrange the entries in ascending order, please. The response must list the labels following the requested ordering.
II, III, I
(II: 7.9 nM, III: 51 nM, I: 682 nM)
